# tgt: full length active recombinant SYK enzyme (Homo sapiens, UniProt P43405)
# Construct: full length active recombinant SYK enzyme (Millipore, Calif.)
# procedure.summary: Inhibition of Syk tyrosine phosphorylation activity (LANCE TR-FRET kinase assay)
# particulars: activity in the Syk assays, class symbols
# Protocol: The in vitro and in vivo human Syk activities of the inventive compounds can be determined by various procedures known in the art, such as a test for their ability to inhibit the activity of human plasma Syk. […] Potency of candidate molecules for inhibiting Syk tyrosine phosphorylation activity is assessed by measuring the ability of a test compound to inhibit Syk-mediated tyrosine phosphorylation of a Syk-specific substrate. […]
observed.property: IC50

State the recorded IC50 for this entry: CC(C)C[C@@H](Nc1cnc(C(N)=O)c(Nc2ccc3c(c2)CCC(=O)N3C)n1)C(N)=O 1 to 10 nM

State the recorded IC50 for this entry: NC(=O)c1ncc(N[C@@H]2CCCC[C@@H]2N)nc1Nc1cc(-n2ccnn2)cc(-n2nccn2)c1 1 to 10 nM

State the recorded IC50 for this entry: Cc1cccc(Nc2nc(N[C@@H]3CCCC(F)(F)[C@@H]3N)cnc2C(N)=O)c1 10 to 100 nM

State the recorded IC50 for this entry: NC(=O)c1ncc(NC2(C(N)=O)CCC2)nc1Nc1ccc2ncccc2c1 1 to 10 nM

State the recorded IC50 for this entry: NC(=O)c1ncc(N[C@@H]2CCCC[C@@H]2N)nc1Nc1ccc(C2CC2)nc1 1 to 10 nM

State the recorded IC50 for this entry: Cc1cc(Nc2nc(N[C@H](CC(C)C)C(N)=O)cnc2C(N)=O)sn1 1 to 10 nM

State the recorded IC50 for this entry: Cc1cc(Nc2nc(N[C@H](CC(C)(C)C)C(N)=O)cnc2C(N)=O)sn1 10 to 100 nM

State the recorded IC50 for this entry: Cc1cccc(Nc2nc(N[C@H](CC(C)C)C(N)=O)cnc2C(N)=O)c1 10 to 100 nM
